- EXPERIMENTAL_SYSTEM: T1, human MSLN-R2-his protein (human, UniProt Q13421 391-486)
- T1 construct: Region 2 of human mesothelin, made in HEK293E cells, His-tagged; also called human MSLN-R2 protein; hMSLN-R2-his; not shown: His tag
- T1 sequence (Q13421 other isoform, or with tags, fused parts or gaps): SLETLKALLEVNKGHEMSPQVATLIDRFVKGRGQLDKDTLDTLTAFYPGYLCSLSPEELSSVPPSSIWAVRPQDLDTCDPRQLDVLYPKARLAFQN
- ASSAY_NOTES: ELISA on coated MSLN-R2; antibody 1 nM
QUANTITY: OD450 (OD450)
Give a bare numeral; the unit OD450 is implied.

A selection of reference data follows.
BINDER: S009-F8-13.8 (antibody, human IgG1, kappa, V domains shown) VH: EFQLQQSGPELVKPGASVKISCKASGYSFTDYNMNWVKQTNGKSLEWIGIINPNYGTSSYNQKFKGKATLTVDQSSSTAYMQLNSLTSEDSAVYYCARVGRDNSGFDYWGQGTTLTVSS VL: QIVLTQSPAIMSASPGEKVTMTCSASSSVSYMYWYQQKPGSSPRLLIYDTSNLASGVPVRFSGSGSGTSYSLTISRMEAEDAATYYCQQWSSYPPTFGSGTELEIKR
UNIT_NAME: OD450
NUMERIC_READOUT: 0.04
--
BINDER: S009-F8-27.1 (antibody, human IgG1, kappa, V domains shown) VH: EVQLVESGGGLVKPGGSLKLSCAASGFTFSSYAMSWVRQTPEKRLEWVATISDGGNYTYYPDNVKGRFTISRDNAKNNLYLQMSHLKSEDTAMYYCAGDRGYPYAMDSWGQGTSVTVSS VL: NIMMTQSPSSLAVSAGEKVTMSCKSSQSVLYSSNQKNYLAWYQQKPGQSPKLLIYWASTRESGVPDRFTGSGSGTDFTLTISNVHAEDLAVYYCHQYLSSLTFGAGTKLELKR
UNIT_NAME: OD450
NUMERIC_READOUT: 0.05
--
BINDER: S009-F8-29.1 (antibody, human IgG1, kappa, V domains shown) VH: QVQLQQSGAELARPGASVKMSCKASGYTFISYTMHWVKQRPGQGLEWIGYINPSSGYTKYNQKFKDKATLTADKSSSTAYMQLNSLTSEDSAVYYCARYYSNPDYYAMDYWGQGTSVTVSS VL: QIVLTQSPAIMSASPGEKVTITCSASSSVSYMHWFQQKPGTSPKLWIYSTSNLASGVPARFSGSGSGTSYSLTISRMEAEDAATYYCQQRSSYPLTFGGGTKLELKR
UNIT_NAME: OD450
NUMERIC_READOUT: 0.04
--
BINDER: S009-F8-8.22 (antibody, human IgG1, kappa, V domains shown) VH: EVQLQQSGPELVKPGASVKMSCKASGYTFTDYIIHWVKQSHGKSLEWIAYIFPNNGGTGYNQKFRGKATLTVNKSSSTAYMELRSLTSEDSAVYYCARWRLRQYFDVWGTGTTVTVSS VL: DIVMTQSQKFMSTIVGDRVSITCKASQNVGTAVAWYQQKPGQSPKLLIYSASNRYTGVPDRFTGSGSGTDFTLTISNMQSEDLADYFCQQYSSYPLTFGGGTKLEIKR
UNIT_NAME: OD450
NUMERIC_READOUT: 0.04
--
BINDER: Tab106 (YP218, hIgG1) (antibody, V domains shown, also called YP218 human IgG1 antibody) VH: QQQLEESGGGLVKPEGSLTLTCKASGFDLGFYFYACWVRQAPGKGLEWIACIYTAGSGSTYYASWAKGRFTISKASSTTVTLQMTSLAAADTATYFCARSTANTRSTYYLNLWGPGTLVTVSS VL: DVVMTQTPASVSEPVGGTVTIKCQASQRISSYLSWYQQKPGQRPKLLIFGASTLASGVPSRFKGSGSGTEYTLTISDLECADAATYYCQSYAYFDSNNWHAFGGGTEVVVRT
UNIT_NAME: OD450
NUMERIC_READOUT: 0.04

Now take the following binder into account.
INPUT: Find the measured OD450 of S009-F8-5.15 (antibody, human IgG1, kappa, V domains shown) VH: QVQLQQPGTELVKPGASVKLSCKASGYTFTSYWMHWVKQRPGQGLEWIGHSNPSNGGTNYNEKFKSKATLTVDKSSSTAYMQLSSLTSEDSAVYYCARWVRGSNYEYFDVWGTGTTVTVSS VL: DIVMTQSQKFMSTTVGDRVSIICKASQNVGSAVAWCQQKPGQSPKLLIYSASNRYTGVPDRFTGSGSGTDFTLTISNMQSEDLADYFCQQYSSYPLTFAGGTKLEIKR and report it.
OUTPUT: 0.04
